Entries with their measured pKd, system FKBP12 (Homo sapiens):
pKd: −log10 of the molar value.
Parameter: pKd

- Compound: "Cc1sc2c(c1C)C(c1ccc(Cl)cc1)=NC(CC(=O)N1CC(CN3CCC(Cn4cc(C5CN(Cc6ccccn6)C(=O)C6CCCC5N6S(=O)(=O)c5cc(Cl)cc(Cl)c5)nn4)CC3)C1)c1nnc(C)n1-2 (stereo not drawn) [a12c]"
  Measured number: 8.74
- Compound: "Cc1sc2c(c1C)C(c1ccc(Cl)cc1)=NC(CC(=O)N1CC(CN3CCC(n4cc(C5CN(Cc6ccccn6)C(=O)C6CCCC5N6S(=O)(=O)c5cc(Cl)cc(Cl)c5)nn4)CC3)C1)c1nnc(C)n1-2 (stereo not drawn) [a11c]"
  Measured number: 9.15
- Compound: "Cc1sc2c(c1C)C(c1ccc(Cl)cc1)=NC(CC(=O)NCCOCCn1cc(COCC3CN(Cc4ccccn4)C(=O)C4CCCC3N4S(=O)(=O)c3cc(Cl)cc(Cl)c3)nn1)c1nnc(C)n1-2 (stereo not drawn)"
  Measured number: 9.00
